target: recombinant Mtb-DapA (Mtb-rDapA) (Mycobacterium tuberculosis); assay: biochemical; conditions: read-out: Maximal Inhibition (%)
Exercise: for every item that follows, state its recorded Emax.
# unit: % | format: bare number

Inquiry: Look up Emax for this compound: "O=C(O)c1ccccc1"
Reply text: 2

Inquiry: Look up Emax for this compound: CCOC(=O)CCC[S+]([O-])CC(N)=O (stereo not drawn)
Reply text: 31

Inquiry: Look up Emax for this compound: O=C(O)CCCCC(O)C(=O)O (stereo not drawn) [compound 11, hydroxyheptanedioic acid]
Reply text: 74

Inquiry: Look up Emax for this compound: "CCOC(=O)CCCS(=O)(=O)CC(N)=O"
Reply text: 12

Inquiry: Look up Emax for this compound: CCCC(=O)CC(=O)OC [compound 7, Methyl 3-oxohexanoate]
Reply text: 5

Inquiry: Look up Emax for this compound: "CCCCc1ccc(C(=O)O)nc1"
Reply text: 5

Inquiry: Look up Emax for this compound: "O=C(O)COc1ccccc1"
Reply text: 4

Inquiry: Look up Emax for this compound: COC(=O)CCCCC(=O)C(N)=O [compound 32, methyl 7-amino-6,7-dioxoheptanoate]
Reply text: 24

Inquiry: Look up Emax for this compound: "O=C(O)CCCC(=O)C(=O)O"
Reply text: 40

Inquiry: Look up Emax for this compound: "CN(CCCC(N)=O)C(=O)C(=O)O"
Reply text: 44

Inquiry: Look up Emax for this compound: COC(=O)CCCCC(O)C(N)=O (stereo not drawn) [compound 31, Methyl 7-amino-6-hydroxy-7-oxoheptanoate]
Reply text: 28

Inquiry: Look up Emax for this compound: "O=C(O)CCCN1C(=O)NC(=O)C1=O"
Reply text: 21

Inquiry: Look up Emax for this compound: O=C(O)c1ccc(C(O)C(=O)O)cc1 (stereo not drawn) [compound 23, Carboxy-hydroxy-methyl benzoic acid]
Reply text: 35

Inquiry: Look up Emax for this compound: "O=C(O)CCCCCC(=O)O"
Reply text: 10

Inquiry: Look up Emax for this compound: "CCOC(=O)C(=O)N(C)CCCC(N)=O"
Reply text: 35

Inquiry: Look up Emax for this compound: NC(=O)CCCCC(O)C(N)=O (stereo not drawn) [compound 35, 2-Hydroxyheptanediamide]
Reply text: 21

Inquiry: Look up Emax for this compound: "NC(=O)NC(=O)CCCC(=O)O"
Reply text: 40

Inquiry: Look up Emax for this compound: COC(=O)c1ccc(C(O)C(=O)O)cc1 (stereo not drawn)
Reply text: 35

Inquiry: Look up Emax for this compound: "NC(=O)CSCCCC(=O)O"
Reply text: 15

Inquiry: Look up Emax for this compound: Nc1ccc(C(=O)O)c(O)c1 [compound 8, 4-amino-2-hydroxy-benzoic acid]
Reply text: 4

Inquiry: Look up Emax for this compound: COC(=O)c1ccc(C(=O)C(N)=O)cc1 [compound 22, Methyl-amino-oxoacetyl benzoate]
Reply text: 35

Inquiry: Look up Emax for this compound: "NC(=O)C(=O)c1ccc(C(=O)O)cc1"
Reply text: 34

Inquiry: Look up Emax for this compound: CCOC(=O)CCCCSC(N)=O [compound 27, ethyl-carbamoylthio-pentanoate]
Reply text: 34

Inquiry: Look up Emax for this compound: "CCOC(=O)C(=O)N(C)CCCC(=O)OC"
Reply text: 42

Inquiry: Look up Emax for this compound: "CN(CCCC(=O)O)C(=O)C(=O)O"
Reply text: 39

Inquiry: Look up Emax for this compound: "O=C(O)C(=O)c1ccc(C(=O)O)cc1"
Reply text: 22

Inquiry: Look up Emax for this compound: COC(=O)CCCCC(=O)c1nn[nH]n1 [compound 21, methyl-oxo-tetrazol-hexanoate]
Reply text: 35

Inquiry: Look up Emax for this compound: "COC(=O)c1ccc(C(=O)C(=O)O)cc1"
Reply text: 29

Inquiry: Look up Emax for this compound: "O=C(O)CCC(=O)C(=O)O"
Reply text: 15

Inquiry: Look up Emax for this compound: "CCOC(=O)C(=O)CCCCC(=O)O"
Reply text: 35

---

molecular target: recombinant Mtb-DapA (Mtb-rDapA) (Mycobacterium tuberculosis); experiment: biochemical; details: IC50 of α-KPA, pyruvate 0.3 mM, ASA 400 μM, 40 min from start
Measured endpoint: IC50 (µM)
# unit: µM | format: bare number

Inquiry: Look up IC50 for this molecule: O=C(O)CCCCC(=O)C(=O)O [compound 1, 2-oxoheptanedioic acid]
Reply text: 31

---

molecular target: recombinant Mtb-DapA (Mtb-rDapA) (Mycobacterium tuberculosis, UniProt P9WP25); assay: biochemical; conditions: IC50 of α-KPA, pyruvate 1 mM, ASA 400 μM, 10 min from start
Sequence (P9WP25 whole entry, looked up): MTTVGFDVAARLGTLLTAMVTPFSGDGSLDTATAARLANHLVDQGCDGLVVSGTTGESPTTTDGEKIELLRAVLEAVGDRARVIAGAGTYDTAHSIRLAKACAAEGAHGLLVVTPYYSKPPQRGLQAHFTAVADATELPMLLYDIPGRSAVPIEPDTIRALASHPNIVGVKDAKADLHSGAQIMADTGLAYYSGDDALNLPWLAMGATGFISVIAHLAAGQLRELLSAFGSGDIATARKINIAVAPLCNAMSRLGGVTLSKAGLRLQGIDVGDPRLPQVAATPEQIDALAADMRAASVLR
Measured endpoint: pIC50
// pIC50 here means minus log10 of the molar concentration (mol/L)

Inquiry: Item: "O=C(O)CCCCC(=O)C(=O)O" Test system: recombinant Mtb-DapA (Mtb-rDapA) (Mycobacterium tuberculosis, UniProt P9WP25) Read-out: pIC50 Value: ?
Reply text: 4.68

---

biological target: recombinant Mtb-DapA (Mtb-rDapA) (Mycobacterium tuberculosis, UniProt P9WP25); assay: biochemical; conditions: IC50 of α-KPA, pyruvate 0.3 mM, ASA 400 μM, 30 min from start
Measured endpoint: IC50 (µM)
# unit: µM | format: bare number

Inquiry: Item: "O=C(O)CCCCC(=O)C(=O)O" Test system: recombinant Mtb-DapA (Mtb-rDapA) (Mycobacterium tuberculosis, UniProt P9WP25) Read-out: IC50 Value: ?
Reply text: 21

---

target: recombinant Mtb-DapA (Mtb-rDapA) (Mycobacterium tuberculosis); test: biochemical; conditions: IC50 of α-KPA, pyruvate 1 mM, ASA 400 μM, 40 min from start
Measured endpoint: IC50 (µM)
# unit: µM | format: bare number

Inquiry: Look up IC50 for this compound: "O=C(O)CCCCC(=O)C(=O)O"
Reply text: 31

---

molecular target: recombinant Mtb-DapA (Mtb-rDapA) (Mycobacterium tuberculosis, UniProt P9WP25); test: biochemical; conditions: IC50 of α-KPA, pyruvate 2 mM, ASA 400 μM, 40 min from start
Measured endpoint: IC50
Remember to follow the number with its unit.

Inquiry: Look up IC50 for this molecule: "O=C(O)CCCCC(=O)C(=O)O"
Reply text: 81 µM

---

target: recombinant Mtb-DapA (Mtb-rDapA) (Mycobacterium tuberculosis, UniProt P9WP25); assay: biochemical; settings: IC50 of α-KPA, pyruvate 0.17 mM, ASA 400 μM, 20 min from start
Measured endpoint: IC50 (µM)
# unit: µM | format: bare number

Inquiry: Item: O=C(O)CCCCC(=O)C(=O)O [compound 1, 2-oxoheptanedioic acid] Test system: recombinant Mtb-DapA (Mtb-rDapA) (Mycobacterium tuberculosis, UniProt P9WP25) Read-out: IC50 Value: ?
Reply text: 21

---

target: recombinant Mtb-DapA (Mtb-rDapA) (Mycobacterium tuberculosis, UniProt P9WP25); assay: biochemical; details: IC50
Measured endpoint: IC50 (µM)
# unit: µM | format: bare number

Inquiry: Look up IC50 for this compound: "O=C(O)CCCCC(=O)C(=O)O"
Reply text: 160

---

molecular target: recombinant Mtb-DapA (Mtb-rDapA) (Mycobacterium tuberculosis); assay: biochemical; details: read-out: Maximal Inhibition (%)
Exam item: assign MET to entries whose Emax is below 60% and NOT MET to entries at or above 60%. Note that a value of exactly 60% receives NOT MET.

Inquiry: State whether 60% exceeds Emax recorded for Nc1ccc(C(=O)O)cc1 [compound 6, p-amino benzoic acid] .
Reply text: MET

Inquiry: State whether 60% exceeds Emax recorded for O=C(O)CCCCC(=O)C(=O)O [compound 1, 2-oxoheptanedioic acid] .
Reply text: NOT MET

Inquiry: State whether 60% exceeds Emax recorded for COC(=O)CCCN1C(=O)NC(=O)C1=O [compound 19, methyl-trioxoimidazolidin -butanoate] .
Reply text: MET

Inquiry: State whether 60% exceeds Emax recorded for CCOC(=O)CCCSCC(N)=O [compound 34] .
Reply text: MET

Inquiry: State whether 60% exceeds Emax recorded for NC(=O)c1ccc(C(=O)C(=O)O)cc1 [compound 37, 2-(4-Carbamoylphenyl)-2-oxoacetic acid] .
Reply text: MET

Inquiry: State whether 60% exceeds Emax recorded for NC(=O)SCCCCC(=O)O [compound 13, 5-(Carbamoylthio)pentanoic acid] .
Reply text: NOT MET

Inquiry: State whether 60% exceeds Emax recorded for COC(=O)CCCC(=O)NC(N)=O [compound 12, Methyl-oxo-ureidopentanoate] .
Reply text: NOT MET

Inquiry: State whether 60% exceeds Emax recorded for NC(=O)CS(=O)(=O)CCCC(=O)O [compound 30] .
Reply text: MET

Inquiry: State whether 60% exceeds Emax recorded for CN(CCCC(N)=O)C(=O)C(N)=O [compound 17, amino-oxobutyl-methyloxalamide] .
Reply text: MET

---

molecular target: recombinant Mtb-DapA (Mtb-rDapA) (Mycobacterium tuberculosis, UniProt P9WP25); test: biochemical; settings: IC50 of α-KPA, pyruvate 0.17 mM, ASA 400 μM, 10 min from start
Measured endpoint: IC50 (µM)
# unit: µM | format: bare number

Inquiry: Look up IC50 for this compound: "O=C(O)CCCCC(=O)C(=O)O"
Reply text: 21

The origin of these recorded values is paper PMC4977564.
